organism: Rattus norvegicus; assay: Open TG-GATES - Regimen: Single; format: toxicity, organism-based, Sprague-Dawley; set-up: regimen Single, gender Male, age 6 weeks; details: in vivo, po, 0 mg/kg, 6 h, tissue Liver, route gavage, dose level Control
QUANTITY MEASURED: LIVER (g)
Numbers only; they are read as g.

Here is how some molecules turned out for LIVER.
1. C[C@H]1C(=O)O[C@@H]2CCN3CC=C(COC(=O)[C@](C)(O)[C@]1(C)O)[C@H]23 :: 8.5
2. Cc1cccc(C)c1OCC(C)N (centres undefined) :: 9.4
3. CCOC(=O)C(C)(C)Oc1ccc(Cl)cc1 [CLOFIBRATE] :: 10
4. O=C1CN(/N=C/c2ccc([N+](=O)[O-])o2)C(=O)N1 :: 9.8

Return value of LIVER for input O=[N+]([O-])c1ccc(O)c([N+](=O)[O-])c1 , no commentary.
8.9

Return value of LIVER for input C[C@H]1O[C@H](O[C@H]2[C@H](O)[C@@H](O)[C@@H](O[C@H]3[C@H](O)[C@@H](O)C(O)O[C@@H]3CO)O[C@@H]2CO)[C@H](O)[C@@H](O)[C@@H]1N[C@H]1C=C(CO)[C@@H](O)[C@H](O)[C@H]1O (some centres undefined) , no commentary.
8.2

Return value of LIVER for input C=C(C)[C@H]1Cc2c(ccc3c2O[C@@H]2COc4cc(OC)c(OC)cc4[C@@H]2C3=O)O1 , no commentary.
8.7

Return value of LIVER for input Cc1ccc2cc3c(ccc4ccccc43)c3c2c1CC3 , no commentary.
8.4

Return value of LIVER for input OCCN1CCN(CCCN2c3ccccc3Sc3ccc(C(F)(F)F)cc32)CC1 , no commentary.
8.6

---

organism: Rattus norvegicus; test: Open TG-GATES - Regimen: Daily Repeat; type: toxicity, organism-based, Sprague-Dawley; design: regimen Daily Repeat, gender Male, age 6 weeks; conditions: in vivo, po, 0 mg/kg, […], tissue Blood, route gavage, dose level Control, time 14 day
met means recorded Mono is 3% or above; not met means it is below 3%.

Past entries and their recorded results:
1) O=C1CN(/N=C/c2ccc([N+](=O)[O-])o2)C(=O)N1 [NITROFURANTOIN] :: not met
2) Cc1cccc(C)c1OCC(C)N (centres undefined) [MEXILETINE] :: not met
3) O=[N+]([O-])c1ccc(O)c([N+](=O)[O-])c1 [2,4-DINITROPHENOL] :: met

Hi, just wondering whether C[C@H]1O[C@H](O[C@H]2[C@H](O)[C@@H](O)[C@@H](O[C@H]3[C@H](O)[C@@H](O)C(O)O[C@@H]3CO)O[C@@H]2CO)[C@H](O)[C@@H](O)[C@@H]1N[C@H]1C=C(CO)[C@@H](O)[C@H](O)[C@H]1O (some centres undefined) [ACARBOSE] shows Mono of 3% or higher.
not met

Hi, just wondering whether C[C@H]1C(=O)O[C@@H]2CCN3CC=C(COC(=O)[C@](C)(O)[C@]1(C)O)[C@H]23 [MONOCROTALINE] shows Mono of 3% or higher.
not met

Hi, just wondering whether Cn1cc[nH]c1=S [METHIMAZOLE] shows Mono of 3% or higher.
not met

Hi, just wondering whether OCCN1CCN(CCCN2c3ccccc3Sc3ccc(C(F)(F)F)cc32)CC1 [FLUPHENAZINE] shows Mono of 3% or higher.
met

Hi, just wondering whether C=C(C)[C@H]1Cc2c(ccc3c2O[C@@H]2COc4cc(OC)c(OC)cc4[C@@H]2C3=O)O1 [ROTENONE] shows Mono of 3% or higher.
met

---

species: Rattus norvegicus; assay: Open TG-GATES - Regimen: Daily Repeat; format: toxicity, organism-based, Sprague-Dawley; design: regimen Daily Repeat, gender Male, age 6 weeks; conditions: in vivo, po, 0 mg/kg, 72 h, tissue Blood, route gavage, dose level Control, time 3 day
QUANTITY MEASURED: Mono (%)
Numbers only; they are read as %.

1) C=C(C)[C@H]1Cc2c(ccc3c2O[C@@H]2COc4cc(OC)c(OC)cc4[C@@H]2C3=O)O1 :: 7.8
2) OCCN1CCN(CCCN2c3ccccc3Sc3ccc(C(F)(F)F)cc32)CC1 :: 7.2
3) Cc1cccc(C)c1OCC(C)N (centres undefined) :: 2.8
4) Cn1cc[nH]c1=S :: 1.6
5) CCOC(=O)C(C)(C)Oc1ccc(Cl)cc1 [CLOFIBRATE] :: 3.2
6) O=[N+]([O-])c1ccc(O)c([N+](=O)[O-])c1 :: 4.8
7) O=C1CN(/N=C/c2ccc([N+](=O)[O-])o2)C(=O)N1 :: 3
8) C[C@H]1C(=O)O[C@@H]2CCN3CC=C(COC(=O)[C@](C)(O)[C@]1(C)O)[C@H]23 :: 2

Note: attention shifts to another entry.
Return value of Mono for input C[C@H]1O[C@H](O[C@H]2[C@H](O)[C@@H](O)[C@@H](O[C@H]3[C@H](O)[C@@H](O)C(O)O[C@@H]3CO)O[C@@H]2CO)[C@H](O)[C@@H](O)[C@@H]1N[C@H]1C=C(CO)[C@@H](O)[C@H](O)[C@H]1O (some centres undefined) , no commentary.
3.2

---

organism: Rattus norvegicus; assay: Open TG-GATES - Regimen: Daily Repeat; type: toxicity, organism-based, Sprague-Dawley; design: regimen Daily Repeat, gender Male, age 6 weeks; conditions: in vivo, po, 0 mg/kg, […], tissue Plasma, route gavage, dose level Control, time 28 day
QUANTITY MEASURED: Ca (mg/dL)
Numbers only; they are read as mg/dL.

1. C[C@H]1C(=O)O[C@@H]2CCN3CC=C(COC(=O)[C@](C)(O)[C@]1(C)O)[C@H]23 :: 10.6

Return value of Ca for input Cn1cc[nH]c1=S , no commentary.
10.5

Return value of Ca for input OCCN1CCN(CCCN2c3ccccc3Sc3ccc(C(F)(F)F)cc32)CC1 , no commentary.
10.8

---

species: Rattus norvegicus; experiment: Open TG-GATES - Regimen: Single; type: toxicity, organism-based, Sprague-Dawley; parameters: regimen Single, gender Male, age 6 weeks; settings: in vivo, po, 0 mg/kg, 6 h, tissue Plasma, route gavage, dose level Control
QUANTITY MEASURED: RALB (g/dL)
Numbers only; they are read as g/dL.

Here is how some compounds turned out for RALB.
1. C[C@H]1O[C@H](O[C@H]2[C@H](O)[C@@H](O)[C@@H](O[C@H]3[C@H](O)[C@@H](O)C(O)O[C@@H]3CO)O[C@@H]2CO)[C@H](O)[C@@H](O)[C@@H]1N[C@H]1C=C(CO)[C@@H](O)[C@H](O)[C@H]1O (some centres undefined) :: 2.5
2. CCOC(=O)C(C)(C)Oc1ccc(Cl)cc1 [CLOFIBRATE] :: 3.5
3. Cc1cccc(C)c1OCC(C)N (centres undefined) :: 3
4. C[C@H]1C(=O)O[C@@H]2CCN3CC=C(COC(=O)[C@](C)(O)[C@]1(C)O)[C@H]23 :: 3.1
5. OCCN1CCN(CCCN2c3ccccc3Sc3ccc(C(F)(F)F)cc32)CC1 :: 3.6
6. Cn1cc[nH]c1=S :: 3
7. O=[N+]([O-])c1ccc(O)c([N+](=O)[O-])c1 :: 3.9
8. Cc1ccc2cc3c(ccc4ccccc43)c3c2c1CC3 :: 2.7

Note: attention shifts to another entry.
Return value of RALB for input C=C(C)[C@H]1Cc2c(ccc3c2O[C@@H]2COc4cc(OC)c(OC)cc4[C@@H]2C3=O)O1 , no commentary.
3.8

---

Quick reference for PL among some compounds
species on record: Rattus norvegicus; assay: Open TG-GATES - Regimen: Single; assay type: toxicity, organism-based, Sprague-Dawley; set-up: regimen Single, gender Male, age 6 weeks; conditions: in vivo, po, 0 mg/kg, 9 h, tissue Plasma, route gavage, dose level Control
Numbers only; they are read as mg/dL.

Here is how some compounds turned out for PL.
1. Cc1ccc2cc3c(ccc4ccccc43)c3c2c1CC3 :: 132.2
2. C[C@H]1C(=O)O[C@@H]2CCN3CC=C(COC(=O)[C@](C)(O)[C@]1(C)O)[C@H]23 :: 137
3. C[C@H]1O[C@H](O[C@H]2[C@H](O)[C@@H](O)[C@@H](O[C@H]3[C@H](O)[C@@H](O)C(O)O[C@@H]3CO)O[C@@H]2CO)[C@H](O)[C@@H](O)[C@@H]1N[C@H]1C=C(CO)[C@@H](O)[C@H](O)[C@H]1O (some centres undefined) :: 133.6

Return value of PL for input Cn1cc[nH]c1=S , no commentary.
136.8

---

organism: Rattus norvegicus; assay: Open TG-GATES - Regimen: Daily Repeat; format: toxicity, organism-based, Sprague-Dawley; design: regimen Daily Repeat, gender Male, age 6 weeks; conditions: in vivo, po, 0 mg/kg, […], tissue Blood, route gavage, dose level Control, time 14 day
Quick reference for Lym among some molecules
Numbers only; they are read as %.

1. Cc1cccc(C)c1OCC(C)N (centres undefined) :: 80.6
2. OCCN1CCN(CCCN2c3ccccc3Sc3ccc(C(F)(F)F)cc32)CC1 :: 82.8
3. O=C1CN(/N=C/c2ccc([N+](=O)[O-])o2)C(=O)N1 :: 77.4
4. O=[N+]([O-])c1ccc(O)c([N+](=O)[O-])c1 :: 73
5. C=C(C)[C@H]1Cc2c(ccc3c2O[C@@H]2COc4cc(OC)c(OC)cc4[C@@H]2C3=O)O1 :: 73.6

Return value of Lym for input C[C@H]1C(=O)O[C@@H]2CCN3CC=C(COC(=O)[C@](C)(O)[C@]1(C)O)[C@H]23 , no commentary.
78.4

Return value of Lym for input C[C@H]1O[C@H](O[C@H]2[C@H](O)[C@@H](O)[C@@H](O[C@H]3[C@H](O)[C@@H](O)C(O)O[C@@H]3CO)O[C@@H]2CO)[C@H](O)[C@@H](O)[C@@H]1N[C@H]1C=C(CO)[C@@H](O)[C@H](O)[C@H]1O (some centres undefined) , no commentary.
76

Return value of Lym for input CCOC(=O)C(C)(C)Oc1ccc(Cl)cc1 [CLOFIBRATE] , no commentary.
80.4

Return value of Lym for input Cn1cc[nH]c1=S , no commentary.
80.6
